biological target: SARS-CoV-2 3CL-protease (Severe acute respiratory syndrome coronavirus 2, UniProt P0DTD1); experiment: SARS-CoV-2 3C-like (3CL) protease fluorescence assay (FRET); type: biochemical; conditions: recombinant SARS-CoV-2 3CL-protease 10 nM, 30 min preincubation at RT, substrate 40 μM, run in duplicate

{"columns": ["smiles_record", "IC50"],
 "data": [
  ["CC(C)C[C@@H](C(=O)N1C[C@]2(C[C@@H]1C(=O)c1nc3ccccc3s1)C(=O)Nc1ccccc12)N(C)C(=O)c1cc2c(F)cc(F)cc2[nH]1", "> 10 µM"],
  ["CC(C)C[C@@H](C(=O)N1C[C@]2(C[C@H]1C(=O)c1nc3ccccc3s1)C(=O)Nc1ccccc12)N(C)C(=O)c1cc2c(F)cc(F)c(F)c2[nH]1", "> 10 µM"],
  ["CC(C)C[C@@H](C(=O)N1C[C@]2(C[C@@H]1C(=O)c1nc3ccccc3s1)C(=O)Nc1ccccc12)N(C)C(=O)c1cc2c(F)cc(F)c(F)c2[nH]1", "> 10 µM"],
  ["CC(C)C[C@@H](C(=O)N1C[C@]2(C[C@H]1C(=O)c1nc3ccccc3s1)C(=O)Nc1ccccc12)N(C)C(=O)c1cc2c(F)cc(F)cc2[nH]1", "< 1 µM"],
  ["CC(C)C[C@@H](C(=O)N1C[C@]2(C[C@H]1C(=O)c1nc3ccccc3s1)C(=O)Nc1ccccc12)N(C)C(=O)[C@H](C)NC(=O)OCc1ccccc1", "< 1 µM"],
  ["CC(C)C[C@@H](C(=O)N1C[C@]2(C[C@H]1C(=O)c1nc3ccccc3s1)C(=O)Nc1ccccc12)N(C)C(=O)OCc1ccccc1", "> 10 µM"]
]}
